# Test system: human Factor 7 mRNA
# measurement_protocol: Dose-dependent antisense inhibition of human Factor 7 in HepB3 cells, lipofectin
# Assay type: cell-based
# condition_set: Table 7, 25.0 nM, approximately 16 hours
Strand notation (5' to 3'): a small letter for the sugar, then the base; units joined by * are phosphorothioate-linked, units joined directly phosphodiester-linked; [ ] holds rarer units or linkages, { } end groups; capitals alone tell only the bases. e = 2'-O-(2-methoxyethyl) (MOE); [5mC] = 5-methylcytosine; d = 2'-deoxy (DNA)
observation_type: percent inhibition of Factor 7 (%)
Quick reminder: number only, in %, skip the unit.

Query string: Tell me reported percent inhibition of Factor 7 for 416472 (antisense e[5mC]*eA*eG*e[5mC]*e[5mC]*dT*dT*dG*dG*d[5mC]*dT*dT*dT*d[5mC]*dT*e[5mC]*eT*e[5mC]*e[5mC]*eA) [compound 416472] , tested with human Factor 7 mRNA.
Result string: 64

Query string: Next up: 416508 (antisense e[5mC]*eG*eA*eG*eT*dT*d[5mC]*dT*dG*d[5mC]*dA*dG*dG*dA*dG*e[5mC]*eG*eG*e[5mC]*e[5mC]) [compound 416508]
Result string: 71

Query string: Note, next up: 407900 (antisense e[5mC]*e[5mC]*e[5mC]*e[5mC]*eA*d[5mC]*dA*dA*dT*dT*d[5mC]*dG*dG*d[5mC]*d[5mC]*eT*eT*eG*eG*eG) [compound 407900]
Result string: 61

Query string: Continue with 416549 (antisense eG*eA*e[5mC]*eA*eA*dT*dG*dG*dT*d[5mC]*dA*dG*dG*dG*d[5mC]*eT*eG*eG*eT*eT) [compound 416549]
Result string: 63

Query string: Field entry: 416438 (antisense e[5mC]*eA*eG*eG*eA*dG*d[5mC]*d[5mC]*d[5mC]*d[5mC]*d[5mC]*dA*dT*dT*d[5mC]*eT*eG*eG*e[5mC]*eA) [compound 416438]
Result string: 56

Query string: Next substance up: 407643 (antisense e[5mC]*eA*e[5mC]*eA*e[5mC]*dA*dT*dG*dG*dA*dG*dT*d[5mC]*dA*dG*e[5mC]*eA*eT*e[5mC]*eG) [compound 407643]
Result string: 70

Query string: Another: 416446 (antisense eG*eG*eT*e[5mC]*eA*d[5mC]*dT*dG*d[5mC]*dA*dG*dT*dA*d[5mC]*dT*eG*e[5mC]*eT*e[5mC]*eA) [compound 416446]
Result string: 50

Query string: Note, next up: 407939 (antisense eT*eG*e[5mC]*eA*eG*d[5mC]*d[5mC]*d[5mC]*dG*dG*d[5mC]*dA*d[5mC]*d[5mC]*d[5mC]*eA*eG*e[5mC]*eG*eA) [compound 407939]
Result string: 77

Query string: Same for 416477 (antisense e[5mC]*eA*eG*e[5mC]*e[5mC]*dT*dG*dA*dG*dG*d[5mC]*d[5mC]*dA*dG*d[5mC]*eA*eG*eA*eT*e[5mC]) [compound 416477]
Result string: 64

Query string: 416507 (antisense eG*eG*eT*eT*eA*d[5mC]*dT*dG*dA*dG*d[5mC]*dG*d[5mC]*dG*dG*eA*eA*eG*eA*eA) [compound 416507] ?
Result string: 70

Query string: Now consider 407935 (antisense eA*eT*eG*e[5mC]*eA*dT*dG*dG*dT*dG*dA*dT*dG*d[5mC]*dT*eT*e[5mC]*eT*eG*eA) [compound 407935] .
Result string: 70

Query string: What do you have for 416455 (antisense e[5mC]*eG*e[5mC]*e[5mC]*eG*dG*d[5mC]*dT*d[5mC]*dT*dG*d[5mC]*dT*d[5mC]*dA*eT*e[5mC]*e[5mC]*e[5mC]*e[5mC]) [compound 416455] ?
Result string: 64

Query string: Same question, 416449 (antisense eT*eA*eG*eG*eT*dA*dT*dT*dT*dT*dT*d[5mC]*d[5mC]*dA*d[5mC]*eA*eT*eG*eG*eA) [compound 416449] this time
Result string: 45
